Test system: Fibroblast
Assay: Multiplex assay against human fibroblast
Assay type: toxicity, cell-based
Conditions: 24 h, 10 µM, compound concentration 10 uM, replicate 1
property: Population Mitotic Cells (%)
Answers are plain numbers, in %.

Sample answers from the record:
Please report the recorded Population Mitotic Cells (%) for `Cc1csc2c(N[C@@H](C)CN3CCN(S(=O)(=O)c4ccc(Cl)c(Cl)c4)CC3)ncnc12` .
32

Continue with `CN(C)CC#Cc1ccc(OCCCc2sc(N3CCc4cccc(C(=O)Nc5nc6ccccc6s5)c4C3)nc2C(=O)O)c(F)c1`
28

Your task in this section: give Population Mitotic Cells (%) for each listed record.
1. C=CC(=O)Nc1ccc2ncnc(Nc3ccc(OCc4cccc(F)c4)c(Cl)c3)c2c1.Cc1ccc(S(=O)(=O)O)cc1
2. CN(C)C(=O)N[C@H]1CC[C@H](CCN2CCN(c3cccc(Cl)c3Cl)CC2)CC1.Cl [CARIPRAZINE HYDROCHLORIDE]
3. OC1(c2ccc(Cl)cc2)CCN(Cc2c[nH]c3ccccc23)CC1
4. C=CC(=O)Nc1cc2c(Nc3ccc(F)c(Cl)c3)ncnc2cc1OCCCN1CCOCC1.Cl.Cl [CANERTINIB DIHYDROCHLORIDE]

1. 38
2. 29
3. 35
4. 20

Your task in this section: give Population Mitotic Cells (%) for each listed record.
1. Cc1sc2c(c1C)C(c1ccc(Cl)cc1)=N[C@@H](CC(=O)OC(C)(C)C)c1nnc(C)n1-2
2. COc1cccc([C@@H](C)NCCCc2ccccc2Cl)c1.Cl [TECALCET HYDROCHLORIDE]

[26, 38]

---

Tested on: Fibroblast
Test: Multiplex assay against human fibroblast
Format: toxicity, cell-based
Conditions: 12 h, 10 µM, compound concentration 10 uM, replicate 2
Doc: threshold 90% (exclusive). Items with Population Normal (%) beneath it return Criterion met; others return Criterion not met.

Does `Cc1[nH]c(/C=C2\C(=O)Nc3ccc(S(=O)(=O)N(C)c4cccc(Cl)c4)cc32)c(C)c1C(=O)N1CCN(C)CC1` have Population Normal (%) strictly under 90%?
Criterion met

Continue with `Cc1nc(-c2cn3c(n2)-c2ccc(-c4cnn(C(C)(C)C(N)=O)c4)cc2OCC3)n(C(C)C)n1`
Criterion met

Continue with `C=CC(=O)Nc1cccc(C(=O)Nc2ccc(Nc3cc(-c4[nH]c(SC)nc4C)ccn3)cc2)c1`
Criterion met

Continuing:
Does CN1CCC[C@@H]1CCO[C@](C)(c1ccccc1)c1ccc(Cl)cc1.O=C(O)/C=C/C(=O)O [CLEMASTINE FUMARATE] have Population Normal (%) strictly under 90%?
Criterion met

Continue with `OC1(c2ccc(Cl)cc2)CCN(Cc2c[nH]c3ccccc23)CC1`
Criterion not met

Continue with `CN1CCN(c2ccc(OC(F)(F)F)c(Nc3ncc4c(n3)-c3c(c(C(N)=O)nn3CCO)CC4)c2)CC1`
Criterion met

---

Consider the following compounds; for each one, report its Population Normal (%).
System: HEK-293T
Experiment: Multiplex assay against HEK293T
Format: toxicity, cell-based
Conditions: human, 12 h, 10 µM, compound concentration 10 uM, replicate 1
Answers are plain numbers, in %.

I'm curious: which Population Normal (%) was measured for `CN1CCN(CCOc2cc(OC3CCOCC3)c3c(Nc4c(Cl)ccc5c4OCO5)ncnc3c2)CC1` tested on HEK-293T?
82

Continue with `Cn1cc(-c2[nH]c3cc(NC(=O)[C@H](N)C4CCCCC4)cc4c3c2C=NNC4=O)cn1`
82

Continue with CN1CCC[C@@H]1CCO[C@](C)(c1ccccc1)c1ccc(Cl)cc1.O=C(O)/C=C/C(=O)O [CLEMASTINE FUMARATE]
81

Continue with O=C1NCN(c2ccccc2)C12CCN(CCCOc1ccc(F)cc1)CC2 [SPIRAMIDE]
82

Continue with `Cc1nc(Nc2n[nH]c3c2CN(C(=O)N[C@H](CN(C)C)c2ccccc2)C3(C)C)c2sccc2n1`
82

Continuing:
I'm curious: which Population Normal (%) was measured for `Cc1c(-c2ccc(O)cc2)n(Cc2ccc(OCCN3CCCCCC3)cc2)c2ccc(O)cc12` tested on HEK-293T?
78

---

Test system: Fibroblast
Experiment: Multiplex assay against human fibroblast
Assay type: toxicity, cell-based
Settings: 48 h, 10 µM, compound concentration 10 uM, replicate 2
Consider the following molecules; for each one, report its Population Mitotic Cells (%).
Give bare numbers, in %.

Sample answers from the record:
Please report the recorded Population Mitotic Cells (%) for `C[C@@]1(C(=O)Nc2ccc(F)nc2)CCCN1c1nc(Nc2cc(C3CC3)n[nH]2)c2cccn2n1` .
30

Continue with `Cc1cc(C)cc(-c2cnc3cc(Cl)c(-c4cccc(O)c4)cc3c2OCCCN)c1`
6

Continue with `CNCc1ccccc1-c1csc([C@H](C)Nc2nc(C)nc3cc(OC)c(OC)cc23)c1`
0

Continue with Cl.N#Cc1ccc2[nH]cc(CCCCN3CCN(c4ccc5oc(C(N)=O)cc5c4)CC3)c2c1 [VILAZODONE HYDROCHLORIDE]
65

Continue with CC(C)NCC(O)COc1ccc(CCOCC2CC2)cc1.Cl (stereo not drawn) [BETAXOLOL HYDROCHLORIDE]
0

Continue with `OC1(c2ccc(Cl)cc2)CCN(Cc2c[nH]c3ccccc23)CC1`
9

Continue with `CCOCCn1cc(C(=O)Nc2ccc(-n3nc(-c4cccnc4)cc3C(F)(F)F)cn2)ccc1=O`
0

Continue with `NC(=O)Nc1cc(-c2cccc(F)c2)sc1C(=O)N[C@H]1CCCNC1`
0

Continue with COc1cccc([C@@H](C)NCCCc2ccccc2Cl)c1.Cl [TECALCET HYDROCHLORIDE]
100

Continue with `CN(C)CC#Cc1ccc(OCCCc2sc(N3CCc4cccc(C(=O)Nc5nc6ccccc6s5)c4C3)nc2C(=O)O)c(F)c1`
4

Your task in this section: give Population Mitotic Cells (%) for each listed record.
1. C=CC(=O)Nc1cccc(C(=O)Nc2ccc(Nc3cc(-c4[nH]c(SC)nc4C)ccn3)cc2)c1
2. COc1ncc(-c2ccc3nccc(-c4ccnnc4)c3c2)cc1NS(=O)(=O)c1ccc(F)cc1F
3. CNc1nc(NCc2ccc(NS(C)(=O)=O)cc2Cl)cc(-c2ccccn2)n1

1: 0; 2: 100; 3: 0

---

System: Fibroblast
Assay: Multiplex assay against human fibroblast
Format: toxicity, cell-based
Settings: 24 h, 1 µM, compound concentration 1 uM, replicate 2
Reported Population Hoechst High Intensity Objects (%) maps to class as: lower bin = under 5%, middle bin = from 5% up to 8%, upper bin = 8% and over

Entry `c1cn2cc(-c3ccc4cn[nH]c4c3)nc(Nc3ccc(N4CCOCC4)cc3)c2n1` belongs to which category?
lower bin

Continue with `Cc1nc(-c2ccc(-c3ccc(C(=O)N4CCc5cc6c(cc54)C4(CCN(C)CC4)CO6)cc3)c(C)c2)no1`
upper bin

Continue with `CNc1nc(NCc2ccc(NS(C)(=O)=O)cc2Cl)cc(-c2ccccn2)n1`
lower bin

Continue with `Cc1nc(Nc2n[nH]c3c2CN(C(=O)N[C@H](CN(C)C)c2ccccc2)C3(C)C)c2sccc2n1`
upper bin

Continue with `CCN(CC)CCCCNc1ncc2cc(-c3cc(OC)cc(OC)c3)c(NC(=O)NC(C)(C)C)nc2n1`
upper bin

Continue with `Cc1cc(C)cc(-c2cnc3cc(Cl)c(-c4cccc(O)c4)cc3c2OCCCN)c1`
lower bin

Continue with C[C@@H](NCCCc1cccc(C(F)(F)F)c1)c1cccc2ccccc12.Cl [CINACALCET HYDROCHLORIDE]
middle bin

Now consider a different molecule.
Entry `CN(C)CC#Cc1ccc(OCCCc2sc(N3CCc4cccc(C(=O)Nc5nc6ccccc6s5)c4C3)nc2C(=O)O)c(F)c1` belongs to which category?
middle bin

---

Consider the following compounds; for each one, report its Total Cell Count.
System: Fibroblast
Assay: Multiplex assay against human fibroblast
Format: toxicity, cell-based
Conditions: 12 h, 10 µM, compound concentration 10 uM, replicate 2
One number for each entry.

Sample answers from the record:
Please report the recorded Total Cell Count for CN1CCCC(n2nc(Cc3ccc(Cl)cc3)c3ccccc3c2=O)CC1.Cl (configuration not stated) [AZELASTINE HYDROCHLORIDE] .
96

Continue with O=C1NCN(c2ccccc2)C12CCN(CCCOc1ccc(F)cc1)CC2 [SPIRAMIDE]
91

Continue with `CN1CCN(c2ccc(OC(F)(F)F)c(Nc3ncc4c(n3)-c3c(c(C(N)=O)nn3CCO)CC4)c2)CC1`
61

Continue with `C=CC(=O)Nc1cccc(C(=O)Nc2ccc(Nc3cc(-c4[nH]c(SC)nc4C)ccn3)cc2)c1`
78

Continue with `Cc1cc(C)cc(-c2cnc3cc(Cl)c(-c4cccc(O)c4)cc3c2OCCCN)c1`
60

Your task in this section: give Total Cell Count for each listed record.
1. COc1cccc([C@@H](C)NCCCc2ccccc2Cl)c1.Cl [TECALCET HYDROCHLORIDE]
2. CC[C@H](C)C(=O)O[C@H]1C[C@@H](C)C=C2C=C[C@H](C)[C@H](CC[C@@H]3C[C@@H](O)CC(=O)O3)[C@H]21
3. Cc1c(-c2ccc(O)cc2)n(Cc2ccc(OCCN3CCCCCC3)cc2)c2ccc(O)cc12
4. CN(C)C(=O)/C(C#N)=C/c1ccc(-c2nc3cnc4[nH]ccc4c3n2C2CCCCC2)o1
5. Cc1nc(-c2cn3c(n2)-c2ccc(-c4cnn(C(C)(C)C(N)=O)c4)cc2OCC3)n(C(C)C)n1
6. CC(C)NCC(O)COc1ccc(CCOCC2CC2)cc1.Cl (configuration not stated) [BETAXOLOL HYDROCHLORIDE]

1. 83
2. 54
3. 42
4. 91
5. 99
6. 107

Your task in this section: give Total Cell Count for each listed record.
1. Cc1nc(Nc2n[nH]c3c2CN(C(=O)N[C@H](CN(C)C)c2ccccc2)C3(C)C)c2sccc2n1
2. Cl.N#Cc1ccc2[nH]cc(CCCCN3CCN(c4ccc5oc(C(N)=O)cc5c4)CC3)c2c1 [VILAZODONE HYDROCHLORIDE]
3. Cc1[nH]c(/C=C2\C(=O)Nc3ccc(S(=O)(=O)N(C)c4cccc(Cl)c4)cc32)c(C)c1C(=O)N1CCN(C)CC1
4. COc1cc(-n2cnc3cc(-c4ccc(Cl)cc4)sc3c2=O)ccc1OCCN1CCCC1
5. Cn1cc(-c2[nH]c3cc(NC(=O)[C@H](N)C4CCCCC4)cc4c3c2C=NNC4=O)cn1
6. C=CC(=O)Nc1cc2c(Nc3ccc(F)c(Cl)c3)ncnc2cc1OCCCN1CCOCC1.Cl.Cl [CANERTINIB DIHYDROCHLORIDE]
7. CN(C)CC#Cc1ccc(OCCCc2sc(N3CCc4cccc(C(=O)Nc5nc6ccccc6s5)c4C3)nc2C(=O)O)c(F)c1
8. C[C@@H](NCCCc1cccc(C(F)(F)F)c1)c1cccc2ccccc12.Cl [CINACALCET HYDROCHLORIDE]

1. 98
2. 72
3. 70
4. 75
5. 91
6. 160
7. 133
8. 68

Your task in this section: give Total Cell Count for each listed record.
1. COc1ncc(-c2ccc3nccc(-c4ccnnc4)c3c2)cc1NS(=O)(=O)c1ccc(F)cc1F
2. COc1cc2nccc(Oc3ccc(NC(=O)Nc4cc(C)on4)c(Cl)c3)c2cc1OC.O
3. CN(C)C(=O)N[C@H]1CC[C@H](CCN2CCN(c3cccc(Cl)c3Cl)CC2)CC1.Cl [CARIPRAZINE HYDROCHLORIDE]
4. CCN(CC)CCCCNc1ncc2cc(-c3cc(OC)cc(OC)c3)c(NC(=O)NC(C)(C)C)nc2n1
5. Cc1csc2c(N[C@@H](C)CN3CCN(S(=O)(=O)c4ccc(Cl)c(Cl)c4)CC3)ncnc12
6. OC1(c2ccc(Cl)cc2)CCN(Cc2c[nH]c3ccccc23)CC1
7. CC(C)(O)CNc1ncc(-c2ccnc(Nc3ccnc(Cl)c3)n2)c(CC2CC2)n1

1: 77; 2: 58; 3: 79; 4: 189; 5: 60; 6: 74; 7: 93
